Test: in vitro
Conditions: human, liver microsomes
Description: Metabolic stability in human liver microsomes assessed as intrinsic clearance pretreated for 5 mins followed by NADPH addition and measured for 45 mins by LC/MS analysis
test_readout: microsomal CLint at 50 min

| item_smiles | test_readout | value_measured |
| --- | --- | --- |
| COc1cccc(S(=O)(=O)n2ccc3cnc(Nc4ccc(N5C[C@@H]6C[C@H]5CN6C)cc4)nc32)c1 | microsomal CLint at 50 min | 6.4 µL/min/mg |
| COc1cccc(S(=O)(=O)n2ccc3cnc(Nc4ccc(N5CCN(C)CC5)cc4)nc32)c1 | microsomal CLint at 50 min | 35.5 µL/min/mg |
| CN1CCN(c2ccc(Nc3ncc4ccn(S(=O)(=O)c5cc(F)cc(F)c5)c4n3)cc2)CC1 | microsomal CLint at 50 min | 54.8 µL/min/mg |
| COc1ccc(OC)c(S(=O)(=O)n2ccc3cnc(Nc4ccc(N5CCN(C)CC5)cc4)nc32)c1 | microsomal CLint at 50 min | 40.5 µL/min/mg |

====

Target: Fibroblast growth factor receptor 2 (Homo sapiens)
Sequence (P21802 whole entry): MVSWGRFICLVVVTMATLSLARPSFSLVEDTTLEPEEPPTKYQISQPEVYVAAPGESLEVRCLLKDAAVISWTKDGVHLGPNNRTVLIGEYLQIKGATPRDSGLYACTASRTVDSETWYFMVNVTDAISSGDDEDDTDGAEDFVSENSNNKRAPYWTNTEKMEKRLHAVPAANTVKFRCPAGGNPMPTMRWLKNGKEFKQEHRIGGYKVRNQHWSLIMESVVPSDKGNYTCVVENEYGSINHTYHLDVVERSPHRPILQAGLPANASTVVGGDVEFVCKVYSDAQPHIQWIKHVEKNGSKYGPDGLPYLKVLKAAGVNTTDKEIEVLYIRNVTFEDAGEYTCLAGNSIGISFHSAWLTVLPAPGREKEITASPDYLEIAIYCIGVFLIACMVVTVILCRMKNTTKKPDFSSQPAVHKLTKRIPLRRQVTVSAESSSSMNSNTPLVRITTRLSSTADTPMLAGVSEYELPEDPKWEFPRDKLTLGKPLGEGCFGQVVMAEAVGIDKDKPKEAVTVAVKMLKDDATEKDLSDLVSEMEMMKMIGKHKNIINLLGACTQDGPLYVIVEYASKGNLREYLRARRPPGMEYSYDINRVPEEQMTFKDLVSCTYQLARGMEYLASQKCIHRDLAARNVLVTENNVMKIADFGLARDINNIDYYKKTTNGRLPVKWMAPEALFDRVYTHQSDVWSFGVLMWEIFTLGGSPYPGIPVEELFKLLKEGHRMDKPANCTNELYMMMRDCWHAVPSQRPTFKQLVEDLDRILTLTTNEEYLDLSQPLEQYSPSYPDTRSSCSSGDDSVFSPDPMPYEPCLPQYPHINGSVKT
pIC50: −log10 of the molar value.
test_readout: pIC50

| item_smiles | value_measured |
| --- | --- |
| COc1cccc(S(=O)(=O)n2ccc3cnc(Nc4ccc(N5C[C@@H](C)N[C@@H](C)C5)cc4)nc32)c1 | 7.33 |

====

CLint scaled listing for selected molecules.
Experiment: in vitro
Details: human
Description: Metabolic stability in human assessed as intrinsic clearance
test_readout: CLint scaled (mL/min/kg)

| item_smiles | unit_abbrev | value_measured |
| --- | --- | --- |
| COc1ccc(OC)c(S(=O)(=O)n2ccc3cnc(Nc4ccc(N5CCN(C)CC5)cc4)nc32)c1 | mL/min/kg | 36.5 |
| CN1CCN(c2ccc(Nc3ncc4ccn(S(=O)(=O)c5cc(F)cc(F)c5)c4n3)cc2)CC1 | mL/min/kg | 49.4 |
| COc1cccc(S(=O)(=O)n2ccc3cnc(Nc4ccc(N5CCN(C)CC5)cc4)nc32)c1 | mL/min/kg | 32 |
| COc1cccc(S(=O)(=O)n2ccc3cnc(Nc4ccc(N5C[C@@H]6C[C@H]5CN6C)cc4)nc32)c1 | mL/min/kg | 6 |

====

Target: Fibroblast growth factor receptor 4 (Homo sapiens, UniProt P22455)
Sequence (P22455 whole entry): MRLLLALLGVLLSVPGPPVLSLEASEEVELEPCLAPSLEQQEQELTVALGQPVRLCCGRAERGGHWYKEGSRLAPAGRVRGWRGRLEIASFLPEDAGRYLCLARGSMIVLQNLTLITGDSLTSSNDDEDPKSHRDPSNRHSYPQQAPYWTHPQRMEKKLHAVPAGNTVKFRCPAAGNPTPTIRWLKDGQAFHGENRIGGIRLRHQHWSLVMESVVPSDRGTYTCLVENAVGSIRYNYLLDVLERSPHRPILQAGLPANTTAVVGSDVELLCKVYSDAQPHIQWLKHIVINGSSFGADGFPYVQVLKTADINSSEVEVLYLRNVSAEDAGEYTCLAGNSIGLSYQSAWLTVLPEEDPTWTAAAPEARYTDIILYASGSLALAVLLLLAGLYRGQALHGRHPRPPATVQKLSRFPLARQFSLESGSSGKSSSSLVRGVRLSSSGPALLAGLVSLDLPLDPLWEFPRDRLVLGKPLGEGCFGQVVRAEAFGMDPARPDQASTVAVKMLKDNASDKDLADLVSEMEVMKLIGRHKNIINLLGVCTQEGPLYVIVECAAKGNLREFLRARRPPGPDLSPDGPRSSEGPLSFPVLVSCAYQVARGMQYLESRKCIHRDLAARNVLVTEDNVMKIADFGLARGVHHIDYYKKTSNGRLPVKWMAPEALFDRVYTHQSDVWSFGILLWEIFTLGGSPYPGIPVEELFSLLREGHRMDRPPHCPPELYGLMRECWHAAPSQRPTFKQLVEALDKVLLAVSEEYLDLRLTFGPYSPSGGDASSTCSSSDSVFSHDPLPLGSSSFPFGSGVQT

| item_smiles | IC50 (nM) |
| --- | --- |
| COc1cccc(S(=O)(=O)c2c[nH]c3cnc(Nc4ccc(N5CCOCC5)cc4)nc23)c1 | 1970 |
| CN1CCN(c2ccc(Nc3ncc4ccn(S(=O)(=O)c5cccc6c5OCO6)c4n3)cc2)CC1 | 29.5 |
| CN1CCN(c2ccc(Nc3ncc4ccn(S(=O)(=O)c5cccc(OC(F)(F)F)c5)c4n3)cc2)CC1 | 703 |
| C=CC(=O)N[C@H]1CCOC[C@H]1Nc1ncc2cc(-c3c(Cl)c(OC)cc(OC)c3Cl)ccc2n1 | 5.3 |
| COc1cccc(S(=O)(=O)n2ccc3cnc(Nc4ccc(N5CCN(C)CC5)cc4)nc32)c1OC | 1340 |
| CN1CCN(c2ccc(Nc3ncc4ccn(S(=O)(=O)c5ccccc5OC(F)(F)F)c4n3)cc2)CC1 | 36.8 |
| COc1cccc(S(=O)(=O)n2ccc3cnc(Nc4ccc(N(C)CCN(C)C)cc4)nc32)c1 | 17.1 |
| CN1CCN(c2ccc(Nc3ncc4ccn(S(=O)(=O)c5cccc(F)c5)c4n3)cc2)CC1 | 60.5 |
| CN1CCN(c2ccc(Nc3ncc4ccn(S(=O)(=O)c5ccccc5Cl)c4n3)cc2)CC1 | 33.6 |

====

Biological target: Fibroblast growth factor receptor 4 (Homo sapiens, UniProt P22455)
pIC50: −log10 of the molar value.
test_readout: pIC50

| compound | test_readout | value_measured |
| --- | --- | --- |
| COc1cccc(S(=O)(=O)n2ccc3cnc(Nc4ccc(N5C[C@@H](C)N[C@@H](C)C5)cc4)nc32)c1 | pIC50 | 7.77 |
| COc1cccc(S(=O)(=O)n2ccc3cnc(Nc4ccc(N5CCC(N(C)C)C5)cc4)nc32)c1 (configuration not stated) | pIC50 | 7.38 |
| CN1CCN(c2ccc(Nc3ncc4ccn(S(=O)(=O)c5c(Cl)cccc5Cl)c4n3)cc2)CC1 | pIC50 | 7.26 |
| COc1ccc(Cl)c(S(=O)(=O)n2ccc3cnc(Nc4ccc(N5CCN(C)CC5)cc4)nc32)c1 | pIC50 | 7.54 |
| COc1cccc(S(=O)(=O)n2ccc3cnc(Nc4ccc(N5CCC(N(C)C)CC5)cc4)nc32)c1 | pIC50 | 7.86 |
| COc1ccc(OC)c(S(=O)(=O)n2ccc3cnc(Nc4ccc(N5CCN(C)CC5)cc4)nc32)c1 | pIC50 | 8.06 |
| COc1ccc(S(=O)(=O)n2ccc3cnc(Nc4ccc(N5CCN(C)CC5)cc4)nc32)cc1 | pIC50 | 6.05 |
